Data origin: patent US20150315188A1

studyTarget: Human adrenergic α2A receptor (Homo sapiens, UniProt P08913)
Sequence (P08913 whole entry): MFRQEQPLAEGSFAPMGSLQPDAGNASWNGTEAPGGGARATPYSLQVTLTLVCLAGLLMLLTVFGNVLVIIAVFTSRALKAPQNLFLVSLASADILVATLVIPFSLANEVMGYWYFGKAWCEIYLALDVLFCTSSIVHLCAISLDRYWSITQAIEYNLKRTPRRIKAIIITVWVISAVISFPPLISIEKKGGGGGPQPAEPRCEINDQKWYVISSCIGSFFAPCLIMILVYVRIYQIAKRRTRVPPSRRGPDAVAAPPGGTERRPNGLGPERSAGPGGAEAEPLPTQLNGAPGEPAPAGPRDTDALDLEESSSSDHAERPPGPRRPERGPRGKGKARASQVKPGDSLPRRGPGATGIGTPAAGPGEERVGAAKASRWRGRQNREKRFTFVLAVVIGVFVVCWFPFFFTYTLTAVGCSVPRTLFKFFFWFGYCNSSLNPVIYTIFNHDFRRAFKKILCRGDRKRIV
testDetails: Radioligand binding, adrenergic α2A (Protocol Group B)
Design: purchased Milipore (Millipore)
measurementContext: 0.1 μM compound; Protocol Group B; 0.1 µM
measuredMetric: Percentage inhibition of ligand binding, Adrenergic α2A (0.1 μM) (%)

Completed entries (count: 5):
>>> quantitativeresult("CC(O)(Cn1c2c(c3cc(Cl)cc(F)c31)C1CCCN1CC2)c1ccncc1 (single isomer, unassigned) [52b]")
72
>>> quantitativeresult("CC(O)(Cn1c2c(c3cc(Cl)cc(F)c31)CN1CCCC1C2)c1ccncc1 (single isomer, unassigned) [86b]")
11
>>> quantitativeresult("Cc1ccc2c(c1)c1c(n2CC(C)(O)c2ccncc2)CC2CCCN2C1 (single isomer, unassigned) [37d]")
4
>>> quantitativeresult("Cc1ccc2c(c1)c1c(n2CC(O)c2ccncc2)CNC2CCCC12 (single isomer, unassigned) [34b]")
"−7"
>>> quantitativeresult("CC(O)(Cn1c2c(c3cc(Cl)cc(F)c31)C1CCCN1CC2)c1ccncc1 (single isomer, unassigned) [52d]")
"−6"

P: Cc1cc(F)c2c(c1)c1c(n2CC(C)(O)c2ccncc2)CC2CCCN2C1 (single isomer, unassigned) [62b]
Q: CN1CCc2c(c3cc(CCO)ccc3n2CC(C)(O)c2cccnc2)C1 (single isomer, unassigned) [139b]
Which value of Percentage inhibition of ligand binding, Adrenergic α2A (0.1 μM) is greater, the one for P or the one for Q ? The response must carry the label of the picked entry. P
(P: 16%, Q: 0%)

###

studyTarget: Human adrenergic α2B receptor (Homo sapiens)
Sequence (P18089 whole entry): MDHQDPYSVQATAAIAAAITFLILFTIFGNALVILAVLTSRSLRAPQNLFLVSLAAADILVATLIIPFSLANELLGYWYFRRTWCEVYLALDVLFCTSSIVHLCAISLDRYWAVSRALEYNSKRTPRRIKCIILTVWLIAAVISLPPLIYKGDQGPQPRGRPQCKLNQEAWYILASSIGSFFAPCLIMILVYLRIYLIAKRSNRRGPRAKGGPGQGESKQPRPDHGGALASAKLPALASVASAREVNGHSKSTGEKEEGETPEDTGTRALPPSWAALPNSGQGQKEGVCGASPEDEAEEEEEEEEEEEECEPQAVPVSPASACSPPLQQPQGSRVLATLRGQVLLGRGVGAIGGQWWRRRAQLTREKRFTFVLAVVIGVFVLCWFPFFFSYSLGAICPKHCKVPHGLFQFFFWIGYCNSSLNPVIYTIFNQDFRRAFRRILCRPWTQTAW
testDetails: Radioligand binding, adrenergic α2B (Protocol Group B)
Design: purchased Milipore (Millipore)
measurementContext: 30 nM compound; Protocol Group B; 0.03 µM
measuredMetric: Percentage inhibition of ligand binding, Adrenergic α2B (30 nM) (%)

>>> quantitativeresult("Cc1ccc2c(c1)c1c(n2CC(O)c2ccncc2)CN(C)C2CCCC12 (single isomer, unassigned) [36b]")
"−14"
>>> quantitativeresult("Cc1ccc2c(c1)c1c(n2CC(C)(O)c2cccnc2)CC2CCCN2C1 (centres unmarked) [41c]")
"−10"
>>> quantitativeresult("CN1CCc2c(c3cc(CCO)ccc3n2CC(C)(O)c2cccnc2)C1 (single isomer, unassigned) [139b]")
3
>>> quantitativeresult("Cc1cc(F)cc2c3c(n(CC(C)(O)c4cccnc4)c12)CC1CCCN1C3 (single isomer, unassigned) [76c]")
"−3"
>>> quantitativeresult("CC(O)(Cn1c2c(c3cc(F)ccc31)C1CCCN1CC2)c1ccncc1 (single isomer, unassigned) [31d]")
"−11"

A: OC(Cn1c2c(c3cc(Cl)ccc31)C1CCCN1CC2)c1ccncc1 (single isomer, unassigned) [143c]
B: CC(O)(Cn1c2c(c3cc(F)ccc31)C1CCCN1CC2)c1cccnc1 (centres unmarked) [57a]
Which value of Percentage inhibition of ligand binding, Adrenergic α2B (30 nM) is greater, the one for A or the one for B ? The response must carry the label of the picked entry. A

###

studyTarget: Human adrenergic α2A receptor (Homo sapiens)
testDetails: Radioligand binding, adrenergic α2A (Protocol Group B)
Set-up: purchased Milipore (Millipore)
measurementContext: 0.3 μM compound; Protocol Group B; 0.3 µM
measuredMetric: Percentage inhibition of ligand binding, Adrenergic α2A (0.3 μM) (%)

>>> quantitativeresult("CCCOC(Cn1c2c(c3cc(C)ccc31)CN(C)CC2)c1ccncc1 (single isomer, unassigned) [42b]")
48
>>> quantitativeresult("CC(O)(Cn1c2c(c3cc(F)ccc31)C1CCCN1CC2)c1cccnc1 (stereo not shown) [51a]")
39
>>> quantitativeresult("CC(O)(Cn1c2c(c3cc(Cl)cc(F)c31)C1CCCN1CC2)c1cccnc1 (single isomer, unassigned) [53b]")
54

P: Cc1ccc2c(c1)c1c(n2CC(O)c2ccncc2)CNC2CCCC12 (single isomer, unassigned) [34b]
Q: CC(O)(Cn1c2c(c3cc(F)cc(Cl)c31)C1CCCN1CC2)c1ccncc1 (single isomer, unassigned) [88b]
R: Cc1cc(C)c2c(c1)c1c(n2CC(C)(O)c2ccncc2)CCN2CCCC12 (single isomer, unassigned) [19c]
S: Cc1cc(F)cc2c3c(n(CC(C)(O)c4ccncc4)c12)CC1CCCN1C3 (single isomer, unassigned) [78c]
Sort the 4 compounds by Percentage inhibition of ligand binding, Adrenergic α2A (0.3 μM); largest first, smallest last. State the ranking by listing the labels in the requested order. Q, R, S, P
